# target_under_test: T1, human Nectin-4 (human, UniProt Q96NY8 32-349)
# T1 construct: a Gly32-Ser349 FLAG construct is described only under the SPR assay; also called PVRL4
# T1 sequence (looked up): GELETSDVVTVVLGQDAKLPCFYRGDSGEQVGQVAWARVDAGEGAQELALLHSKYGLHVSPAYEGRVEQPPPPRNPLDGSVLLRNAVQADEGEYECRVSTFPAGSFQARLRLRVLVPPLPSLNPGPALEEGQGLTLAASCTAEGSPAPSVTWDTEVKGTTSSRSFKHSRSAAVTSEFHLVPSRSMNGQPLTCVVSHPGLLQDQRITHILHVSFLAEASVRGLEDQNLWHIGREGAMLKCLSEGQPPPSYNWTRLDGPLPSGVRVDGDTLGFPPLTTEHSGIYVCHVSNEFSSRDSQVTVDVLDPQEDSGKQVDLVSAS
# test_method_notes: FP competition, tracer SEQ ID NO 217
*1 amine or outer side, *2 acyl side, *3 side chain or, on linkers, in order; H or OH if unused. Bridges are numbered along the chain shown (N, C = ends). Where no end group is shown, it is not given here. [ ]: non-standard residue; d: D form. TATA = O=C(CC[*:1])N1CN(C(=O)CC[*:2])CN(C(=O)CC[*:3])C1; 1Nal = N[C@@H](Cc1cccc2ccccc12)C(=O)O; 2Nal = N[C@@H](Cc1ccc2ccccc2c1)C(=O)O; Cya = N[C@@H](CS(=O)(=O)O)C(=O)O; Hyp = O=C(O)[C@@H]1C[C@@H](O)CN1; hArg = N=C(N)NCCCC[C@H](N)C(=O)O; NMeC = CN[C@@H](CS)C(=O)O; Aze = O=C(O)[C@@H]1CCN1; βAla = NCCC(=O)O; Sar = CNCC(=O)O
reported_metric: Ki (nM)
Answers are plain numbers, in nM.

Worked cases, answers included:
- binder: "ACPFGCIKSWSWPIWCQME (linker 2-6-16 via TATA) [BCY3397]"
  Ki, nM: 33.2
- binder: "Ac-CP[1Nal][dR]CL[hArg]DWSTP[Hyp]WC (linker 1-5-15 via TATA) [BCY8213]"
  Ki, nM: 3.5
- binder: "Ac-CP[1Nal][dD]CM[hArg][Cya]WSTP[Hyp]WC (linker 1-5-15 via TATA (inferred)) [BCY8161]"
  Ki, nM: 4

Provide Ki values for the following items, in order.
1. {Ac-βAla}-[Sar][Sar][Sar][Sar][Sar]CPF[dA]CM[hArg]NWSWPIWC (linker 6-10-20 via TATA) [BCY7559]
2. Ac-CPF[dA]CMKNWSWPIWC (linker 1-5-15 via TATA) [BCY7538]
3. Ac-CPFGCMKNWS[2Nal]PIWC (linker 1-5-15 via TATA) [BCY7592]
4. Ac-CPF[dD]CK[hArg]NWSTPIWC (linker 1-5-15 via TATA) [BCY7821]
5. Ac-CPF[dD][NMeC]M[hArg]NWSTPIWC (linker 1-5-15 via TATA) [BCY7973]
6. Ac-C[Aze]FGCMKNWSWPIWC (linker 1-5-15 via TATA) [BCY7608]
7. Ac-CPF[dD]CM[hArg]NWSTP[Hyp]WC (linker 1-5-15 via TATA) [BCY8037]

Response given:
17
8.5
37.4
84
4
42
5.6

The binder listed as Ac-QKWCAPLSDYWC[dD]RIC (linker 4-12-16 via TATA) [BCY8000] shows Ki equal to 60
